This listing pairs compounds with measured max inhibition.
- EXPERIMENTAL TARGET: Beta-2 adrenergic receptor (Homo sapiens) (UniProt P07550)
- Sequence (P07550 whole entry, looked up): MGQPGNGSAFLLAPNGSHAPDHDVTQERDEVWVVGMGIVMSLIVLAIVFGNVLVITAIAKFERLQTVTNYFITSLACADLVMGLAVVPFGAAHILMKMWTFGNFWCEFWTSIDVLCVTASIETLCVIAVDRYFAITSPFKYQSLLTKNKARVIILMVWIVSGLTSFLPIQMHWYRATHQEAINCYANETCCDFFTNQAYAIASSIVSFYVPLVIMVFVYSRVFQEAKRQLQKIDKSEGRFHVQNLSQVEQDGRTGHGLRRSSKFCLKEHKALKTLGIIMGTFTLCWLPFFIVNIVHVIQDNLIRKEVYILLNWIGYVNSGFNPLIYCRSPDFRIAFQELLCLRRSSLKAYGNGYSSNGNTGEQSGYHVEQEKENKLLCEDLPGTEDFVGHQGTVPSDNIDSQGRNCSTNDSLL
- TEST DETAILS: qHTS for antagonists of the Thyroid Stimulation Hormone Receptor: Hit Validation with Beta-2 Adrenergic Receptor
- EXPERIMENTAL PARAMETERS: B2AR-expressing cells, cAMP HTRF, antagonist counterscreen; stronger effect = higher value
Results filed as inconclusive are left out.
Write the answer as a number in %, unit excluded.

Prompt: Consider the compound O=C(Nc1nc(-c2ccccc2)cs1)c1ccccc1NS(=O)(=O)c1ccc(F)cc1 . State its measured max inhibition.
Response: 96

Prompt: Consider the compound COc1ccc(-c2csc(/C(C#N)=C\c3ccc(O)c([N+](=O)[O-])c3)n2)cc1OC . State its measured max inhibition.
Response: 94.4

Prompt: Consider the compound COc1ccc(OCC(=O)NC(=S)Nc2ccc(N3CCOCC3)c(Cl)c2)cc1 . State its measured max inhibition.
Response: 89.7

Prompt: Consider the compound O=C1/C(=C\c2cc([N+](=O)[O-])ccc2O)SC(=S)N1Cc1ccc(Cl)cc1 . State its measured max inhibition.
Response: 90.7

Prompt: Consider the compound Oc1c(Cl)cc(Cl)c(Cl)c1Cc1c(O)c(Cl)cc(Cl)c1Cl . State its measured max inhibition.
Response: 96.4

Next:
Prompt: Consider the compound Cc1ccc(-n2[nH]c(C)c(/C=N/Nc3ccc([N+](=O)[O-])cc3[N+](=O)[O-])c2=O)cc1C . State its measured max inhibition.
Response: 88.7

Prompt: Consider the compound O=C1NC(=S)S/C1=C\c1ccc(SCc2ccccc2)o1 . State its measured max inhibition.
Response: 92.6
